System: Escherichia coli
experimental_details: Antibacterial activity against Escherichia coli at 25 ppm by disk diffusion method
Assay type: functional
Set-up: unit not given here
readout_type: inhibition zone (IZ)

Incoming: Give me measured inhibition zone (IZ), please, for this molecule: CCC(CO)NCP1(=S)CNc2cccc3cccc(c23)NC1 (stereo not given)
Outgoing: 8

* * *

Test system: Escherichia coli
experimental_details: Antibacterial activity against Escherichia coli at 100 ppm by disk diffusion method
Format: functional
Set-up: unit not given here
Let's look at some compounds and their measured inhibition zone (IZ).
Please reply with the number alone, leaving off any unit.

Incoming: Give me measured inhibition zone (IZ), please, for this compound: CC(Cc1ccccc1)OCP1(=S)CNc2cccc3cccc(c23)NC1 (centres undefined)
Outgoing: 8

Incoming: Give me measured inhibition zone (IZ), please, for this compound: CC(NCP1(=[Se])CNc2cccc3cccc(c23)NC1)c1ccccc1 (centres undefined)
Outgoing: 10

Incoming: Give me measured inhibition zone (IZ), please, for this compound: CCC(CO)NCP1(=S)CNc2cccc3cccc(c23)NC1 (centres undefined)
Outgoing: 10

Next:
Incoming: Give me measured inhibition zone (IZ), please, for this compound: CCC(C)OCP1(=[Se])CNc2cccc3cccc(c23)NC1 (centres undefined)
Outgoing: 13

* * *

Test system: Helminthosporium
experimental_details: Antifungal activity against Helminthosporium oryzae at 50 ppm by disc diffusion method
Format: functional
Parameters: unit not given here
Use yes (1) when the recorded inhibition zone (IZ) is no lower than 10; use no (0) when it is lower.

# count of solved cases: 5
Incoming: Reported inhibition zone (IZ) at or above 10? CCC(CO)NCP1(=S)CNc2cccc3cccc(c23)NC1 (stereo not given)
Outgoing: no (0)

Incoming: Reported inhibition zone (IZ) at or above 10? S=P1(CBr)CNc2cccc3cccc(c23)NC1
Outgoing: yes (1)

Incoming: Reported inhibition zone (IZ) at or above 10? CC(NCP1(=[Se])CNc2cccc3cccc(c23)NC1)c1ccccc1 (stereo not given)
Outgoing: no (0)

Incoming: Reported inhibition zone (IZ) at or above 10? CC(Cc1ccccc1)OCP1(=S)CNc2cccc3cccc(c23)NC1 (stereo not given)
Outgoing: no (0)

Incoming: Reported inhibition zone (IZ) at or above 10? CC(NCP1(=S)CNc2cccc3cccc(c23)NC1)c1ccccc1 (stereo not given)
Outgoing: no (0)

Next:
Incoming: Reported inhibition zone (IZ) at or above 10? [Se]=P1(CBr)CNc2cccc3cccc(c23)NC1
Outgoing: no (0)

Incoming: Reported inhibition zone (IZ) at or above 10? CCC(C)OCP1(=S)CNc2cccc3cccc(c23)NC1 (stereo not given)
Outgoing: yes (1)

Incoming: Reported inhibition zone (IZ) at or above 10? CCC(CO)NCP1(=[Se])CNc2cccc3cccc(c23)NC1 (stereo not given)
Outgoing: no (0)

* * *

Tested on: Aspergillus niger
experimental_details: Antifungal activity against Aspergillus niger at 50 ppm by disk diffusion method
Type: functional
Design: unit not given here
readout_type: inhibition zone (IZ)
Please reply with the number alone, leaving off any unit.

Incoming: Give me measured inhibition zone (IZ), please, for this molecule: S=P1(CBr)CNc2cccc3cccc(c23)NC1
Outgoing: 5

Next:
Incoming: Give me measured inhibition zone (IZ), please, for this molecule: CCC(C)OCP1(=S)CNc2cccc3cccc(c23)NC1 (stereo not given)
Outgoing: 10

Incoming: Give me measured inhibition zone (IZ), please, for this molecule: CCC(CO)NCP1(=[Se])CNc2cccc3cccc(c23)NC1 (stereo not given)
Outgoing: 6

Incoming: Give me measured inhibition zone (IZ), please, for this molecule: CC(NCP1(=S)CNc2cccc3cccc(c23)NC1)c1ccccc1 (stereo not given)
Outgoing: 7

Incoming: Give me measured inhibition zone (IZ), please, for this molecule: CCC(C)OCP1(=[Se])CNc2cccc3cccc(c23)NC1 (stereo not given)
Outgoing: 10

Incoming: Give me measured inhibition zone (IZ), please, for this molecule: [Se]=P1(CBr)CNc2cccc3cccc(c23)NC1
Outgoing: 6

Incoming: Give me measured inhibition zone (IZ), please, for this molecule: CCC(CO)NCP1(=S)CNc2cccc3cccc(c23)NC1 (stereo not given)
Outgoing: 10

Incoming: Give me measured inhibition zone (IZ), please, for this molecule: CC(Cc1ccccc1)OCP1(=S)CNc2cccc3cccc(c23)NC1 (stereo not given)
Outgoing: 9

Incoming: Give me measured inhibition zone (IZ), please, for this molecule: CC(Cc1ccccc1)OCP1(=[Se])CNc2cccc3cccc(c23)NC1 (stereo not given)
Outgoing: 8

Incoming: Give me measured inhibition zone (IZ), please, for this molecule: CC(NCP1(=[Se])CNc2cccc3cccc(c23)NC1)c1ccccc1 (stereo not given)
Outgoing: 9
